tested on: LC-2-ad; test: relative viability (nuclei count vs DMSO), 5 days (fraction); higher = more cells survive; settings: first compound 158.11 µM
ASSAY ENDPOINT: relative viability

>>> result("O=C(O)CCCCC(CCSCc1ccccc1)SCc1ccccc1 (centres undefined) [CPI-613] + CCNC(=O)c1noc(-c2cc(C(C)C)c(O)cc2O)c1-c1ccc(CN2CCOCC2)cc1 [Luminespib] (partner 0.01 µM)")
0.235

Entry under review: O=C(O)CCCCC(CCSCc1ccccc1)SCc1ccccc1 (centres undefined) [CPI-613] + Nc1nc2[nH]cc(CCc3ccc(C(=O)N[C@@H](CCC(=O)O)C(=O)O)cc3)c2c(=O)[nH]1 [Pemetrexed] (partner 0.2 µM) . Reported relative viability? 0.116

Entry under review: O=C(O)CCCCC(CCSCc1ccccc1)SCc1ccccc1 (centres undefined) [CPI-613] + CC(=O)Nc1cccc(-n2c(=O)n(C3CC3)c(=O)c3c(Nc4ccc(I)cc4F)n(C)c(=O)c(C)c32)c1 [Trametinib] (partner 0.02 µM) . Reported relative viability? 0.695

Entry under review: O=C(O)CCCCC(CCSCc1ccccc1)SCc1ccccc1 (centres undefined) [CPI-613] + CC1(C)CCC(c2ccc(Cl)cc2)=C(CN2CCN(c3ccc(C(=O)NS(=O)(=O)c4ccc(N[C@H](CCN5CCOCC5)CSc5ccccc5)c(S(=O)(=O)C(F)(F)F)c4)cc3)CC2)C1 [Navitoclax] (partner 0.5 µM) . Reported relative viability? 0.0601
